# Experimental System: pooled human IgG (human IgG1, 2, 3 and 4)
// Enzyme Activity Endpoint Assay (purified): Fab′2 lookup, one value per entry
# value in ng/µL; strip the unit string

// known answers, use as guide
INSERT INTO assay_data (protein, observed_measurement) VALUES
  ('PRT-568 (protein) MANQEIRYSEATPSHITSVWTKGVTPPTQFIQNEDVLHAPYIANQGWYDITKTFNGKDDLLCGAATAGNMLHWWFDQNKTQIENYLKKHPEKQKINFNGEQMFDVKEAIDTKDSQTDSALFSYFKDKAFPYLSTKHLGVFPDHVIDMFINGYRLSLTNHGPTPVKRQTKDPRGGIFDAVFTRGDQSKLLTARHDFKEKTLNEISQLIKQELTEGKALGLSHTYANVRINHVINLWGADFNAEGNLEAIYVTDSDSNASIGMKKYYVGVNAAGHVAISAKEIEGDNIGAQVLGLFTLSTGQDIWQQTNLEHHHHHH', 880),
  ('PRT-430 (protein) MSQTEDSESLQRLRDIEDFQAEKKKQNVVYTKWLDGVDVKDHDFRKIVDGNSAYYATPLLNGRGFYDINKDFNRDSDKCAAAVAANMFHYWLDRNRDNVDRFLRQNPEKHGIIELPDGQLKLSDFLNTYESDDGYRDKSKLFDFISNNFNGPVWTDKLLDNYINGYAYNYKYGRTIEDPTKNTSKINFFKEVFNEKILTNNHSIRNQNEFSVLLSEALYTGKAIGLSYGPAGLRHSLGHIISVWGADLDADGNVVAIYVTDSDDKKLTIGDERVGLKRYKISTDDEGRLRLTAYEETHNTGGQIRGLWTLDTGKQAWADYFDKTEQTGTDQAEQ', 492),
  ('PRT-497 (protein) MVTSVWTKGVTPPTDFRKIVDGNIAYYHAPYKAGQGWYDITKTFNGKDDLLCGAATAGNMLHWWFDQNKEYIEAYLKKHPEKQKIMFGDQELLDVRKAINTKGSQKNSELFNYFRDKAFPNLSARRLGVMPDLVLDMFINGYYLNVTKTQTTDVNRTYQEKDKRGGIFDAVFTRGDQSKLLTSRHDFKEKGLKEISDLIKQELTEGKALGLSHTYANVRINHVINLWGADFDSDGNLKAIYVTDSDSNASIGMKKYFVGVNSAGKVAISAKEIKEDNIGAQVLGLFTLSTGQDIWNQTNLEHHHHHH', 0);

# next protein below
Enquiry: Record request: Enzyme Activity Endpoint Assay (purified): Fab′2 value, item PRT-650 (protein) MQITSVWTKGVTPLTPEQFRYNNEDVIHAPYLAHQGWYDITKAFDGKDNLLCGAATAGNMLHWWFDQNKTEIEAYLSKHPEKQKIIFNNQKLFDLKAAIDTKDSQTNSQLFNYFRDKAFPNLSARQLGVMPDLVLDMFINGYYLNVTKTQSTDVNRPYQTKDPRGGIFDAVFTRGDQTTLLTARHDLKNKGLNDISTIIKQELTEGRALALSHTYANVSISHVINLWGADFNAEGNLEAIYVTDSDANASIGMKKYFVGINAHGHVAISAKKIEGENIGAQVLGLFTLSSGKDIWQKLSLEHHHHHH
Return: 522
